Measured Number with Air-Sac Lesions/Number Treated accompanies every entry in the list below.
System: Mycoplasma gallisepticum
Assay: Antimycoplasmal activity in chicks infected with Mycoplasma gallisepticum
Assay type: in vivo, two- to three-day-old chicks
Conditions: gavage five times, equivalent to 0.5 g/gal, 21 days post-infection

Answered examples (3):
{"COMPOUND": "CCC1OC(=O)CC(O)C(C)C(OC2OC(C)C(O)C(N(C)C)C2O)C(CCOC(=O)COc2ccccc2)CC(C)C(=O)C=CC(C)=CC1COC1OC(C)C(O)C(OC)C1OC (centres unmarked)", "ENDPOINT RESULT": "5/10"}
{"COMPOUND": "CC[C@H]1OC(=O)C[C@@H](O)[C@H](C)[C@@H](O[C@@H]2O[C@H](C)[C@H](O)[C@H](N(C)C)[C@H]2O)[C@@H](CCOc2ccccc2)C[C@@H](C)C(=O)/C=C/C(C)=C/[C@@H]1COC1O[C@H](C)[C@@H](O)[C@@H](OC)[C@H]1OC (some centres unmarked)", "ENDPOINT RESULT": "2/10"}
{"COMPOUND": "CCC1OC(=O)CC(O)C(C)C(OC2OC(C)C(O)C(N(C)C)C2O)C(CCSc2nnnn2C)CC(C)C(=O)C=CC(C)=CC1COC1OC(C)C(O)C(OC)C1OC (centres unmarked)", "ENDPOINT RESULT": "6/10"}

Q: Notebook: pull reported Number with Air-Sac Lesions/Number Treated for Mycoplasma gallisepticum, entry CCC1OC(=O)CC(O)C(C)C(OC2OC(C)C(O)C(N(C)C)C2O)C(CC2Nc3ccccc3S2)CC(C)C(=O)C=CC(C)=CC1COC1OC(C)C(O)C(OC)C1OC (centres unmarked)
A: 3/10

Q: Notebook: pull reported Number with Air-Sac Lesions/Number Treated for Mycoplasma gallisepticum, entry CCC1OC(=O)CC(O)C(C)C(OC2OC(C)C(O)C(N(C)C)C2O)C(CCN=[N+]=[N-])CC(C)C(=O)C=CC(C)=CC1COC1OC(C)C(O)C(OC)C1OC (centres unmarked)
A: 7/10

* * *

Test system: Staphylococcus aureus
Experiment: MIC, broth-dilution microtiter test, Staphylococcus aureus
Format: cell-based
Conditions: broth-dilution microtiter
Measured log10(MIC) accompanies every entry in the list below.
Values below are the log10 of the recorded MIC, with µg/mL as the unit.

Answered examples (2):
{"COMPOUND": "CCC1OC(=O)CC(O)C(C)C(OC2OC(C)C(O)C(N(C)C)C2O)C(CCOc2ccc(-c3ccccc3)cc2)CC(C)C(=O)C=CC(C)=CC1COC1OC(C)C(O)C(OC)C1OC (stereo not drawn) [Compound 41, 20-DH-20-O-(p-Phenylphenyl)desmycosin]", "log10(MIC)": -0.72}
{"COMPOUND": "CCC(=O)OC1C(OC2C(CCCl)CC(C)C(=O)C=CC(C)=CC(COC3OC(C)C(O)C(OC)C3OC)C(CC)OC(=O)CC(O)C2C)OC(C)C(OC2CC(C)(O)C(O)C(C)O2)C1N(C)C (stereo not drawn) [Compound 63, 20-DH-DO-20-Chloro-2'-O-propionyltylosin]", "log10(MIC)": 0.80}

Q: May I ask what log10(MIC) has been recorded for CCC1OC(=O)CC(O)C(C)C(OC2OC(C)C(O)C(N(C)C)C2O)C(CCN2C(=O)c3ccccc3C2=O)CC(C)C(=O)C=CC(C)=CC1COC1OC(C)C(O)C(OC)C1OC (stereo not drawn) [Compound 43, 20-DH-DO-20-N-Phthalimidodesmycosin] ?
A: -0.11

* * *

System: Staphylococcus aureus X1.1
Test: MIC, standard agar-dilution assay, Staphylococcus aureus X1.1
Type: cell-based
Conditions: Staphylococcus aureus, X1.1
Measured MIC accompanies every entry in the list below.
Reply with just the number (in µg/mL).

Answered examples (5):
{"MOLECULE": "CCC1OC(=O)CC(O)C(C)C(OC2OC(C)C(OC3CC(C)(O)C(O)C(C)O3)C(N(C)C)C2O)C(CCOc2ccccc2)CC(C)C(=O)C=CC(C)=CC1COC1OC(C)C(O)C(OC)C1OC (centres unmarked)", "MIC / µg/mL": 1}
{"MOLECULE": "CCC1OC(=O)CC(O)C(C)C(OC2OC(C)C(OC3CC(C)(O)C(O)C(C)O3)C(N(C)C)C2O)C(CCOc2cc(Cl)cc(Cl)c2)CC(C)C(=O)C=CC(C)=CC1COC1OC(C)C(O)C(OC)C1OC (centres unmarked)", "MIC / µg/mL": 1}
{"MOLECULE": "CCC1OC(=O)CC(O)C(C)C(OC2OC(C)C(OC3CC(C)(O)C(O)C(C)O3)C(N(C)C)C2O)C(CCSc2ccccc2)CC(C)C(=O)C=CC(C)=CC1COC1OC(C)C(O)C(OC)C1OC (centres unmarked)", "MIC / µg/mL": 1}
{"MOLECULE": "CCC1OC(=O)CC(O)C(C)C(OC2OC(C)C(OC3CC(C)(O)C(O)C(C)O3)C(N(C)C)C2O)C(CCN=[N+]=[N-])CC(C)C(=O)C=CC(C)=CC1COC1OC(C)C(O)C(OC)C1OC (centres unmarked)", "MIC / µg/mL": 2}
{"MOLECULE": "CCC1OC(=O)CC(O)C(C)C(OC2OC(C)C(O)C(N(C)C)C2O)C(CCI)CC(C)C(=O)C=CC(C)=CC1COC1OC(C)C(O)C(O)C1OC (centres unmarked)", "MIC / µg/mL": 0.5}

Q: May I ask what MIC has been recorded for CCC1OC(=O)CC(O)C(C)C(OC2OC(C)C(OC3CC(C)(O)C(O)C(C)O3)C(N(C)C)C2O)C(CCOc2ccc(C(=O)c3ccccc3)cc2)CC(C)C(=O)C=CC(C)=CC1COC1OC(C)C(O)C(OC)C1OC (centres unmarked) ?
A: 1

Q: May I ask what MIC has been recorded for CCC1OC(=O)CC(O)C(C)C(OC2OC(C)C(OC3CC(C)(O)C(O)C(C)O3)C(N(C)C)C2O)C(CCCl)CC(C)C(=O)C=CC(C)=CC1COC1OC(C)C(O)C(OC)C1OC (centres unmarked) ?
A: 1

Q: May I ask what MIC has been recorded for CCC1OC(=O)CC(O)C(C)C(OC2OC(C)C(O)C(N(C)C)C2O)C(CCOC(=O)COc2ccccc2)CC(C)C(=O)C=CC(C)=CC1COC1OC(C)C(O)C(OC)C1OC (centres unmarked) ?
A: 0.25

Q: May I ask what MIC has been recorded for CCC1OC(=O)CC(O)C(C)C(OC2OC(C)C(O)C(N(C)C)C2O)C(CCOCCc2ccccc2)CC(C)C(=O)C=CC(C)=CC1COC1OC(C)C(O)C(OC)C1OC (centres unmarked) ?
A: 0.25

Q: May I ask what MIC has been recorded for CCC1OC(=O)CC(O)C(C)C(OC2OC(C)C(OC3CC(C)(O)C(O)C(C)O3)C(N(C)C)C2O)C(CCOC(=O)c2nn(CC)c3cc4c(cc3c2=O)OCO4)CC(C)C(=O)C=CC(C)=CC1COC1OC(C)C(O)C(OC)C1OC (centres unmarked) ?
A: 1

Q: May I ask what MIC has been recorded for CCOC(=O)c1ccc(OCCC2CC(C)C(=O)C=CC(C)=CC(COC3OC(C)C(O)C(OC)C3OC)C(CC)OC(=O)CC(O)C(C)C2OC2OC(C)C(O)C(N(C)C)C2O)cc1 (centres unmarked) ?
A: 0.5

Q: May I ask what MIC has been recorded for CCC1OC(=O)CC(O)C(C)C(OC2OC(C)C(OC3CC(C)(O)C(O)C(C)O3)C(N(C)C)C2O)C(C)CC(C)C(=O)C=CC(C)=CC1COC1OC(C)C(O)C(O)C1OC (centres unmarked) ?
A: 2

Q: May I ask what MIC has been recorded for CCC1OC(=O)CC(O)C(C)C(OC2OC(C)C(O)C(N(C)C)C2O)C(CCOC)CC(C)C(=O)C=CC(C)=CC1COC1OC(C)C(O)C(OC)C1OC (centres unmarked) ?
A: 0.5

Q: May I ask what MIC has been recorded for CCC1OC(=O)CC(O)C(C)C(OC2OC(C)C(OC3CC(C)(O)C(O)C(C)O3)C(N(C)C)C2O)C(CCOC(=O)COc2ccccc2)CC(C)C(=O)C=CC(C)=CC1COC1OC(C)C(O)C(OC)C1OC (centres unmarked) ?
A: 0.5

Q: May I ask what MIC has been recorded for CCC1OC(=O)CC(O)C(C)C(OC2OC(C)C(O)C(N(C)C)C2O)C(CCOc2ccc([N+](=O)[O-])cc2)CC(C)C(=O)C=CC(C)=CC1COC1OC(C)C(O)C(OC)C1OC (centres unmarked) ?
A: 0.5

Q: May I ask what MIC has been recorded for CCC1OC(=O)CC(O)C(C)C(OC2OC(C)C(OC3CC(C)(O)C(O)C(C)O3)C(N(C)C)C2O)C(CCOC(C(F)(F)F)C(F)(F)F)CC(C)C(=O)C=CC(C)=CC1COC1OC(C)C(O)C(OC)C1OC (centres unmarked) ?
A: 4

Q: May I ask what MIC has been recorded for CCC1OC(=O)CC(O)C(C)C(OC2OC(C)C(O)C(N(C)C)C2O)C(CC2SCCN2Cc2ccccc2)CC(C)C(=O)C=CC(C)=CC1COC1OC(C)C(O)C(OC)C1OC (centres unmarked) ?
A: 0.25
